Data origin, for the record: the nanobody polyreactivity screen of Harvey et al. (2022)

# experiment notes: yeast display, Sf9 membrane polyspecificity reagent, FACS + sequencing; frameworks hold sequencing errors
quantity kind: polyreactivity (PSR sort gate)

These solved cases illustrate the format of a correct answer.
QVQLVESGGGLVQAGGSLRLSCAASGRTFCSNAMGWYRQAPGKERELVARISWSGGSTYYADSVKGRFTISRDNAKNTVYLQMNSLKPEVTAVYYCAKYYPGRSAFSEGTYWGQGTQVTVSS	low polyreactivity
QVQLVESAAGLVQAGGSLRLRCAASGRIFSDYAMGWYRQAPGKERELVATITSGDSTNYADSVKGRFTISGDNAKNTDYLQMNSLKPEDTAVYYCNADRFADYDYWGQGTQLTVSS	low polyreactivity
QVQLVESGGGLVQAGGSLRLSCAASGRTFGIYAMGWYRQAPGKERELVATISWRGGSTYYADSVKGRFTISRDNAKNTVYLQMNSLKPEDTAVSYCAAGYYPYWGQGTQVTVSS	low polyreactivity
QVQLVESGGGLVQAGGSLRLSCAASGYSFYINVMGWYIQAPGKERELLAAISISGDSTYYSDSVKGRFTISRDNAKNTVYLQMNSLKPDDTALYYCAADTVSSWYYPLEDEYWGQGTQVTVSS	high polyreactivity
LVQLVESGGGLVQAGGSLRLSCAASGSIFSVYAMGWYRQAPGKERELVAAITWRGGNTYYADSVKGRFTLSRDNAKNTVYLQMNSLKPEDTAVYYCNRVYRQRLGRDYWGQGTQVTVSS	high polyreactivity

Ask: Can you look up the measured polyreactivity (PSR sort gate) of QVQLVESGGGLVQAGGSLRLSCAASGFIFYRYAMGWYRQAPGKERELVAAISTLGGSTFYADSVKGRFTISRDNAKNTVYLQMISLKPEDTAVYYCATGPLRAYDYWGQGTQVTVSS for me?
Result: high polyreactivity

Ask: Returns the measured polyreactivity (PSR sort gate) for the input sequence. Input: QVQLVESGGGLVQAGGSLRLSCAASGITYWKYAMGWYRQAPGKERELVAAISKSGGSTYYADSVKGRFTISRDNAKNTVYLQMNSLKPEDTAVYYCAAVPGPASKYGYWGQGTQVTVSS
Result: high polyreactivity

Ask: // returns reported polyreactivity (PSR sort gate) for input QVQLVESGGGLVQAGGSLRLSCAASGRTFASYAMGWNRQPPGKERELFARISKSGGSTYYADSVKGRFTISRDNAKNTVYLQMNSLKPEDTAVYYCAAEYPFEIGYVYYSIDYDYWRQGTQVTVSS
Result: low polyreactivity

====

# experiment notes: yeast display, Sf9 membrane polyspecificity reagent, FACS + sequencing; frameworks hold sequencing errors
quantity kind: polyreactivity (PSR sort gate)

Examples with answers:
QVQLVESGGGLVQAGGSLRLSCAASGSIFLVNALGWYRQAPGKERELVAAISWSGGSTYYAESVKGRFTISRDNAKNTVYLQMKSLKPEDTAVYYCAADWFAANYYVNTVSALDYWGLGTQVTVSS	low polyreactivity
QVQLVESGGGLVQAGGSLRLSCAASGSPSQPYAMGWYRQAPGKVRELVASITNGGITYYADSVKGRFPISRDNANNTVELQMNSLKPEDTAVYYCARTGPSAYWEFDYWGQGTQVTVSS	low polyreactivity
QVQLVESGGGLVQAGGSLRLSCAASGRIFRVYAMGWYRQAPGKERELVAAITSGGTTYADSVKGRFTISRDYAKNTVYLQMNSLKPEDTAVYYCAARYYIHRGYDYDYWGQGTQVTVSS	high polyreactivity
QFQLVESGGGLVQAGGSLRLSCAASGSTFITNAMGCYRQAPGKERELVASITRGAGSTYYADSVKGRITISRDNAKNTVYLQMNSLKPEDTAVYYCRLAPRYRKGGYWGQGTQVTVSS	high polyreactivity
QVQLVESGGGLVQAGGSLRLSCAASGITIGRYAMGWYRPAPGKERELVAAISSTGGRTYYADSVKGRFTISRDNAKNTVYLQMNSLKPEDTAVYYCAAGRRRPFGRNDYWGQGTQVTVSS	high polyreactivity
QVQLVESGGGLVQAGGSLRLSCAASGIIFRLNAMGWYRQAPGKERELVAAIRRRGGSTYYADSVKGRFTISRDIAKNTVYLQMNSLKPEDTAVYYCAKDPHGSDFGYWGQGTQVTVSS	low polyreactivity
QVQLVESGGGLVQAGGSLRLSCAASGRTFSKNAMGWYRQAPGKERELVADISRRGGRTYYADSVNGRFTISRDNAKNTVYLQMNSLKPEDTAVYYCAARTYRQPYYILDYYWGQGTQVTVSS	high polyreactivity
QVQLVESGGGLVQAAGSLRLSSAASGRTFVGYSMGWYRQAPGKERELVAAIHWSVGITYYADSVKGRFTISRDNAKNTVYLQMNSLKPEDTAVYYCAADGYDEPDLLVYEPWREDEYWGQGTQVTVSA	low polyreactivity

Ask: // polyreactivity (PSR sort gate) lookup, key: QVQLVESGGGLVQAGGSLRLSCAASGSTFTAYAMGWYRQAPGKERELVAAISKRSGGTYYADSVKGRFTISRDNAKNTVYLQMNSLKPEDTAVYYCGQGTQVTVSS
Result: low polyreactivity

Ask: polyreactivity (PSR sort gate) lookup needed for QVQLVESGGGLVQAGGSLRLSCAASGFIMDYNTMGGYRQAPGKERELVAAISSSGDTTYYAASVKGRFTISRDNAKNSVYLQMNCLKPDDTAVYYCAREYGDGYEYWGQGTQVTVSS , thanks.
Result: low polyreactivity
